Field: growth inhibition. Provide a value for each of the compounds that follow.
assay: NCI Yeast Anticancer Drug Screen. Data for the sgs1 strain (AID 173);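 note: 0% = growth of vehicle-only control cultures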; settings: S. cerevisiae sgs1 mutant, at 33.0 µM, active compounds read high
This is part of a sample that, as a whole, favours compounds with a hit. Of some 79,000 tested, about 15% had one in any assay.
API: value field is a number in %; no unit string.

Quick one: growth inhibition for "CS(=O)(=O)OCCN(CCOS(C)(=O)=O)c1ccc(C=O)cc1" ?
80

Same lookup for "Nc1nnc(N)n1-n1c(N)nnc1N" , please.
-1

Same lookup for "COC(=O)C1=C(C(=O)OC)C2OC1c1cc3ccccc3cc12" , please.
99

Same lookup for CCC1(OC(=O)CN)C(=O)OCc2c1cc1n(c2=O)Cc2cc3ccccc3nc2-1 (centres undefined) , please.
94

Same lookup for "CCOP(=S)(S)OCC.[Pd]" , please.
93

Same lookup for Cc1ccc2c(c1)C1(C)c3cc(C)ccc3SP1S2 (centres undefined) , please.
46

Same lookup for "Cc1ccc2c(c1N)C(=O)c1ccccc1C2=O" , please.
7

Same lookup for "CN(C)CCSC1=Nc2ccc(Cl)cc2C(c2ccccc2Cl)=NC1" , please.
16

Same lookup for "NCCc1ccc(OCc2ccccc2)c(OCc2ccccc2)c1" , please.
95

Same lookup for "CC1=C2C(=C[C@@](C)(CO)[C@@H]2O)C(=O)[C@](C)(O)C12CC2" , please.
50

Same lookup for "O=C(O)CCCc1cc(I)c(N(CCCl)CCCl)c(I)c1" , please.
88

Same lookup for CC1CN1C1=C(Cl)C(=O)C(N2CC2C)=C(Cl)C1=O (centres undefined) , please.
97

Same lookup for C/C(CCl)=N/NC1=NC(c2ccccc2Cl)P(=O)(NCCCNP2(=O)SC(N/N=C(/C)CCl)=NC2c2ccccc2Cl)S1 (centres undefined) , please.
19

Same lookup for "C=CC[N+]12CN3CN(CN(C3)C1)C2" , please.
-4

Same lookup for "CC1(C)N=C(N)N=C(N)N1c1cccc(N)c1.[Sn]" , please.
26

Same lookup for "O=c1c2ccccc2[se]n1-c1cccnc1" , please.
96

Same lookup for "CCCCCNC(=O)c1c(O)[nH]c(=S)[nH]c1=O" , please.
94

Same lookup for CCC1(O)C(=O)OCc2c1cc1n(c2=O)Cc2cc3ccccc3nc2-1 (centres undefined) , please.
35

Same lookup for CC1(Cl)CC(C)(/C=C/Cl)C(Cl)CC1Cl (centres undefined) , please.
28

Same lookup for OC1(c2ccccc2)CC2CCC(C1)N2CCCC(O)(c1ccccc1)c1ccccc1 (centres undefined) , please.
38

Same lookup for "O=c1oc2ccccc2c(O)c1C(c1ccc2ccccc2c1)c1c(O)c2ccccc2oc1=O" , please.
73

Same lookup for "Cc1nc2ccccc2cc1C[N+]12CN3CN(CN(C3)C1)C2" , please.
28

Same lookup for "[O-][n+]1c2cccc(O)c2[n+]([O-])c2cccc(O)c21" , please.
46

Same lookup for "Br[Se]c1ccccn1" , please.
99

====

test: NCI Yeast Anticancer Drug Screen. Data for the bub3 strain (AID 167); details: S. cerevisiae bub3 mutant strain, at 50.0 µM, active compounds read high
The panel holds about 79,000 compounds, 15% with a hit somewhere; the sample as a whole holds those more often.
Field: growth inhibition. Provide a value for each of the molecules that follow.
API: value field is a number in %; no unit string.

Quick one: growth inhibition for CC1(C)C(=O)C=CC2(C)C1CC(O)C1(C)C2CCC2(C)C(c3ccoc3)OC(=O)C3OC321 (stereo unspecified) ?
82.2

Same lookup for "CSCCl" , please.
97.6

Same lookup for "CCOP(=S)(OCC)OC(c1ccc(Cl)cc1)c1ccc(Cl)cc1" , please.
49.6

Same lookup for "Cc1ccc2ccccc2c1NC1=NCCO1" , please.
11.8

Same lookup for CSc1ccc(NC(=O)C2c3[nH]c4ccccc4c3C3CCC(C(C)(C)C)CC3C2C(=O)O)cc1 (stereo unspecified) , please.
77.1

Same lookup for "CC[C@@]1(O)C(=O)OCc2c1cc1n(c2=O)Cc2cc3cc4c(cc3nc2-1)OCO4" , please.
74.3

Same lookup for "CN(N=O)C(=O)NNC(=O)N(C)N=O" , please.
1.9

Same lookup for "O=[N+]([O-])c1cc(S(=O)(=O)F)ccc1S" , please.
91.8

Same lookup for C=Cc1cc(OC)c2c(c1)c(=O)oc1c2cc(OC)c2c(O)ccc(C3OC(C)C(O)C(C)(O)C3O)c21 (stereo unspecified) , please.
89.4

Same lookup for "O=[n+]1c2ccccc2n([O-])c2ccccc21.[Cl][Ni][Cl]" , please.
89

Same lookup for CCC(C)N1CN(c2ccccc2)C2(CCN(CC3COc4ccccc4O3)CC2)C1=O (stereo unspecified) , please.
66.7

====

test: NCI Yeast Anticancer Drug Screen. Data for the bub3 strain (AID 167); details: S. cerevisiae bub3 mutant strain, at 50.0 µM
The panel holds about 79,000 compounds, 15% with a hit somewhere; the sample as a whole holds those more often. The source made the active and inactive calls. Rule as the data show it: active = growth inhibition above about 70%; inactive = the rest.
Respond using exactly one of the listed classes: T for active, F for inactive

Which outcome was assigned to CCN1CCC(O)(c2ccc(Cl)c(Cl)c2)C(C(=O)c2ccc(Cl)c(Cl)c2)C1 (stereo not given) in this test?
T

Same lookup for "CCc1ccc2c(c1)N(CCCN(CCCl)CCCl)c1ccccc1S2" , please.
T

Same lookup for COc1cc2c3c(c1)-c1c(ccc(OC)c1OC)CC3N(CCCl)CC2 (stereo not given) , please.
F

Same lookup for "CN(C)CCCNc1ccnc2c(COC(=O)N(CCCl)CCCl)ccc([N+](=O)[O-])c12" , please.
F

Same lookup for COc1cccc(C(Cc2ccc(N3C(N)=NC(N)=NC3(C)C)cc2)C(=O)Nc2ccc(S(=O)(=O)F)cc2)c1 (stereo not given) , please.
T

Same lookup for "CC/C(=C/c1ccc2c(c1)OCO2)[N+](=O)[O-]" , please.
T

Same lookup for CC(=O)OCC1OC(OC(C)C)[CH]([Hg][S]Cc2ccccc2)C(OC(C)=O)C1OC(C)=O (stereo not given) , please.
T

Same lookup for "COc1cc(C=Nc2cc[c]([Hg][O]C(C)=O)cc2)ccc1O" , please.
T

Same lookup for "N#C[S-].[Ce+3].c1ccc(-c2ccccn2)nc1.c1ccc(-c2ccccn2)nc1.c1ccc(-c2ccccn2)nc1" , please.
T

Same lookup for "CCC[N+](CCC)(CCC)CCC.N#CN=C([SH2+])[SH2+].N#CN=C([SH2+])[SH2+].[Pt+2]" , please.
F

Same lookup for "O=C(CBr)OCc1ccccc1" , please.
T

Same lookup for C/C1=C\[C@@H](O)C(=O)/C=C/C=C\c2csc(n2)[C@@H](C)NC(=O)C[C@@]2(CC1)S(=O)SC(=O)[C@]2(C)O (stereo not given in full) , please.
T

Same lookup for CC(C(=O)C1CCCCC1)[n+]1ccccc1 (stereo not given) , please.
F

Same lookup for "[C-]#[O+].[C-]#[O+].[Ir].[O-]c1ccc2ccccc2c1N=Nc1ccccc1" , please.
F

Same lookup for "CCOP(=S)(S)OCC.[Pd]" , please.
T

Same lookup for CCC(C)N1CN(c2ccccc2)C2(CCN(CCCC3(c4ccc(F)cc4)OCCO3)CC2)C1=O (stereo not given) , please.
F

Same lookup for CC1CC(Br)C(=O)O1 (stereo not given) , please.
T

Same lookup for "[Ni+2].[O-][Cl+3]([O-])([O-])O.c1ccc([PH+](CC[PH+](c2ccccc2)c2ccccc2)c2ccccc2)cc1.c1ccc([PH+](CC[PH+](c2ccccc2)c2ccccc2)c2ccccc2)cc1" , please.
F

Same lookup for "CC12CCC(C)(c3cc(O)c(O)cc31)c1cc(O)c(O)cc12" , please.
F

Same lookup for CC(C)(C)C(Br)C(=O)NC(N)=O (stereo not given) , please.
F

====

assay: NCI Yeast Anticancer Drug Screen. Data for the mlh1 rad18 strain (AID 175); conditions: S. cerevisiae mlh1 rad18 strain growth inhibition; at 50.0 µM
This is part of a sample that, as a whole, favours compounds with a hit. Of some 79,000 tested, about 15% had one in any assay. The source made the active and inactive calls. No stated cut-off is given here; in the data, active means growth inhibition above about 70%; inactive means the rest.
Respond using exactly one of the listed classes: T = active, F = inactive

Which outcome was assigned to "O=C(COc1ccc(Cl)cc1Cl)NO" in this test?
F

Same lookup for "[Cl][Hg][Cl].c1ccc(CSc2ccccc2)cc1" , please.
T

Same lookup for "COc1c(NC(=O)CC(C)=O)[c]([Hg][O]C(C)=O)c(OC)c(Cl)[c]1[Hg][O]C(C)=O" , please.
T

Same lookup for CCCCCC(Cn1ccnc1)c1ccc(Cl)cc1Cl (stereo unspecified) , please.
T

Same lookup for "O=C1NC(=O)C([N+](=O)[O-])C(=O)N1" , please.
F

Same lookup for ClC1=C(Cl)C2(Cl)C(C3CO3)CC1(Cl)C2(Cl)Cl (stereo unspecified) , please.
F

Same lookup for "C1CN([PH+](N2CC2)N2CC2)CCO1.C1CN([PH+](N2CC2)N2CC2)CCO1.[I][Pt][I]" , please.
F

Same lookup for "C[CH2][Sn]([CH2]C)([O]C(C)=O)[O][Sn]([CH2]C)([CH2]C)[O]C(C)=O" , please.
T

Same lookup for "O=P(O/C(=C\c1ccccc1)c1ccccc1)(c1ccccc1)c1ccccc1" , please.
T

Same lookup for "CS/C([S-])=N/N=C(C)C.CS/C([S-])=N/N=C(C)C.[Ni+2]" , please.
T

Same lookup for "Nc1cc(Cl)ccc1C(=O)c1ccccc1Cl" , please.
T
